measurementTarget: Dickkopf-related protein 1 (Homo sapiens) (UniProt O94907)
Sequence (O94907 whole entry, looked up): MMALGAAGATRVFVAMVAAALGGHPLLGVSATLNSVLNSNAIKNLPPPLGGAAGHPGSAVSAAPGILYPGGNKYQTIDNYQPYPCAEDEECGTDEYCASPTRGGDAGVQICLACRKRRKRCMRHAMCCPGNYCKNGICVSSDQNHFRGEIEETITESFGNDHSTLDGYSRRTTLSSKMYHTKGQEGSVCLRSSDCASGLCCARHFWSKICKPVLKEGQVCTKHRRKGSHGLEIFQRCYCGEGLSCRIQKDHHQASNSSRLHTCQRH
protocol: DKK1 binders on small-molecule microarrays, primary screen, biochemical, small-molecule microarray, 635 nm fluorescence scan (AID 1106);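 also: score merges emission near 667 nm with signal to noise over three replicate slides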
testContext: DKK1 binding, higher = more signal
We begin with a simple list: items and their reported composite z-score.
measureName: composite z-score

COc1ccc(COC(=O)NN=C2C[C@@H](O)[C@@H](O)[C@@H]3[C@@H]4C(=O)N(Cc5ccccc5)C(=O)[C@@H]4CC[C@H]23)cc1: -1.15
O=C1CCCC=C1C(O)CCOC(c1ccccc1)(c1ccccc1)c1ccccc1 (centres undefined): 0.335
CC(C)=CCCC(C)=CCON=C1C[C@@H](O)[C@@H](O)[C@@H]2[C@@H]3C(=O)N(Cc4ccccc4)C(=O)[C@@H]3CC[C@@H]12: 1.04
CO[C@@H]1COC(=O)[C@@H](C)NC(=O)CC=C[C@@H](C)[C@H](NS(=O)(=O)c2ccc(C)cc2)COC(=O)[C@H](C)NC(=O)CC=C[C@H]1C: 0.822

###

protocol: small-molecule microarray binders of probe aShh, primary screen, biochemical, biotinylated probe, 635/667 nm fluorescence (AID 1114);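 also: probe is biotin-labelled aShh protein from a stem cell growth factor screen; measures binding of labelled protein to compounds printed on the slide; score merges feature fluorescence at 667 nm with signal-to-noise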
testContext: higher = more signal
measureName: composite z-score

CC(C)=CCCC(C)=CCON=C1C[C@@H](O)[C@@H](O)[C@@H]2[C@@H]3C(=O)N(C(C)(C)C)C(=O)[C@@H]3CC[C@@H]12: -0.0626
O=C1CCCC(C2=CCCCC2=O)C1 (stereo not given): 0.116
CCN1C(=O)[C@H]2[C@H]3[C@H](O)[C@H](O)CC(=O)[C@@H]3CC[C@H]2C1=O: -0.138
COC(=O)CC=C[C@@H](C)[C@@H](C=NOC(C)CN1CCCc2nc(C)c(C)cc21)OC (stereo not given in full): -0.223
COC(=O)CC=C[C@@H](C)[C@H](OCc1cccc(-c2ccccc2)c1)C1CCCCC1: -0.0694
COc1ccc(O[C@H]2C=C[C@@H](c3ccccc3)O[C@@H]2CON=C2[C@H]3CCn4c(=O)n(-c5ccccc5)c(=O)n4[C@H]3[C@H](O)[C@@H]3O[C@H]23)cc1: -0.0769
CSCC[C@@H]1NC(=O)CC=C[C@@H](C)COC(=O)[C@@H](C)COC1=O: -0.366
CC1O[C@H]2C3=C(C(=O)[C@@H]4O[C@@H]4[C@H]3O)[C@@H]1C1[C@@H](C)OC=C3[C@H](O)C4O[C@@H]4C(=NOCc4ccccc4)[C@]312 (stereo not given in full): 0.225
COc1ccc(O[C@H]2C=C[C@@H](c3ccccc3)O[C@@H]2CON=C(C)CCN2CCc3nc(-c4ccccc4)c(-c4ccccc4)cc3C2)cc1: -0.123
CO[C@H]1COC(=O)[C@@H](C)COC(=O)[C@H](C)NC(=O)CC=C[C@H]1C: -0.243
CC(C)(C)N1C(=O)[C@H]2[C@H]3[C@H](O)C=CC(=O)[C@@H]3CC[C@H]2C1=O: 0.0121
CCCNC(=O)OC[C@H]1O[C@H](CCON=Cc2ccc(C(=O)N3[C@H](c4ccc(C)cc4)[C@@H](C)CC[C@H]3C(=O)OC)cc2)C=C[C@@H]1Oc1ccc(OC)cc1: -0.493
COC(=O)CC=C[C@@H](C)[C@@H](C=NOCC[C@@H]1C=C[C@H](OC(C)=O)[C@@H](COC(C)=O)O1)OC: 0.284
CCOC(=O)[C@H](Cc1ccccc1)NC(=O)CCC1CC(OC(=O)NCc2ccc3c(c2)OCO3)CC2(CCCC(COC(=O)NCCc3ccccc3OC)O2)O1 (stereo not given in full): -0.0471
COc1cccc([C@H]2Oc3ccc(OC)cc3C(=NO[C@H](C)c3cn([C@H](CO)Cc4ccccc4)nn3)[C@@H]2O)c1: -0.229
COC(=O)[C@H]1O[C@@H](c2c(OC)c(OC)c(C)c(OC)c2OC)[C@H](C)[C@@H](O)[C@H]1C: -0.0769
CON=C1[C@H]2CCn3c(=O)n(-c4ccccc4)c(=O)n3[C@H]2[C@H](O)[C@@H]2O[C@H]12: -0.138
C#CCCCON=C1C[C@@H](O)[C@@H](O)[C@@H]2[C@@H]3C(=O)N(c4ccc(F)cc4F)C(=O)[C@@H]3CC[C@@H]12: -0.179
CCOC(=O)[C@H](CC(C)C)NC(=O)CCC1CC(OC(=O)NCc2ccc3c(c2)OCO3)CC2(CCCC(COC(=O)NCC3CCCCC3)O2)O1 (stereo not given in full): 0.131
CCOC(=O)[C@H](CC(C)C)NC(=O)CCC1CC(OC(=O)NCCc2ccc(F)cc2)CC2(CCCC(COC(=O)NCCOc3ccccc3)O2)O1 (stereo not given in full): -0.13
CCOC(=O)[C@H](CC(C)C)NC(=O)CCC1CC(OC(=O)NCc2cccc3ccccc23)CC2(CCCC(COC(=O)NCCc3ccc(Cl)cc3)O2)O1 (stereo not given in full): -0.473
COc1cccc([C@H]2Oc3ccc(OC)cc3C(=NOC[C@@H](O)COCc3ccco3)[C@@H]2O)c1: -0.372
CC(C)[C@@H](OCc1ccccc1)[C@H](C)C=NOC[C@@H](O)COCc1ccco1: -0.37
COc1cccc([C@H]2Oc3ccc(OC)cc3C(=NOC[C@@H](O)[C@H]3O[C@@H]4OC(C)(C)O[C@@H]4[C@H]3O)[C@@H]2O)c1: -0.304
CC(C)=CCCC(C)=CCON=C1C[C@@H](O)[C@@H](O)[C@@H]2[C@@H]3C(=O)N(C(C)(C)C)C(=O)[C@@H]3CC[C@H]12: -0.153
CCOC(=O)[C@H](CC(C)C)NC(=O)CCC1CC(OC(=O)NCc2cccc3ccccc23)CC2(CCCC(COC(=O)NCc3cccc(C(F)(F)F)c3)O2)O1 (stereo not given in full): -0.0626
COc1ccc(O[C@H]2C=C[C@@H](c3ccccc3)O[C@@H]2COC(=O)CCC(C)=NOC[C@@H](O)[C@H]2O[C@@H]3OC(C)(C)O[C@@H]3[C@H]2O)cc1: -0.291
CCCCC#C[C@@H]1C=C[C@H](OC(C)=O)[C@@H](COC(C)=O)O1: -0.221
O=C1CCCC=C1C(O)CCCCBr (stereo not given): 0.191
CC(C)=NO[C@H](C)c1cn([C@H](CO)Cc2ccccc2)nn1: 0.0121

###

measurementTarget: Calmodulin-1 (Homo sapiens)
protocol: calcium-bound CALM1 binders on microarrays, profiling panel, artefact control for SMM control-protein annotation, biochemical, small-molecule microarray, Cy5-labelled CALM1, plus calcium (AID 1112);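 also: score merges spot fluorescence with signal to noise from triplicate slides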
testContext: Cy5-CALM1 binding fluorescence, higher = more signal
Parameter threshold = -1. Response is Met when composite z-score meets or exceeds it, else Not met.

COC(=O)[C@@H]1CC[C@H](C)[C@@H](c2ccc(C)cc2)N1C(=O)c1ccc(C=NOCC[C@@H]2C=C[C@H](OC(C)=O)[C@@H](COC(C)=O)O2)cc1: Met
CO[C@@H]1C=CCC(=O)N[C@@H](C)C(=O)OC[C@@H](OC)[C@H](C)CCCC(=O)OC[C@H]1C: Not met
O=C1[C@H]2[C@H]3[C@H](O)[C@H](O)CC(=NOC[C@@H](O)COCc4ccco4)[C@H]3CC[C@H]2C(=O)N1Cc1ccccc1: Not met
CO[C@@H]1COC(=O)[C@@H](C)NC(=O)CC=C[C@@H](C)[C@H](NS(=O)(=O)c2ccc(C)cc2)COC(=O)[C@H](C)NC(=O)CC=C[C@H]1C: Not met
C=COC[C@@H]1CN2[C@@H](CC[C@@H](C)[C@@H]2c2ccc(Br)cc2)C(=O)O1: Not met
CC(C)C[C@H](NC(=O)CCC1CC(OC(=O)NCc2cccc3ccccc23)CC2(CCCC(COC(=O)NCc3ccccc3)O2)O1)C(=O)NCC(c1ccccc1)c1ccccc1 (some centres not stated): Met
COC(=O)CC=C[C@H](C)[C@@H](OCc1cccc(Br)c1)[C@@H](C)[C@H](OC)C1CCCCC1: Not met

###

Tested on: XIP peptide (Xip251-270) binding
protocol: small-molecule binders of XIP peptide, primary screen, biochemical, small-molecule microarray, fluorescence 635/667 nm, 0.1 µg/mL protein (AID 1182)
testContext: fluorescent protein binding, 635 nm, higher = more signal, called active from +8 up or from −8 down
Activity calls are given as the source filed them.
measureName: composite z-score

COc1ccc(O[C@H]2C=C[C@@H](c3ccccc3)O[C@@H]2COC(=O)CCC(C)=NOC[C@@H](O)[C@H]2O[C@@H]3OC(C)(C)O[C@@H]3[C@H]2O)cc1: 0.162 (inactive)
CC(C)CON=C1C[C@@H](O)[C@@H](O)[C@@H]2[C@@H]3C(=O)N(c4ccc(F)cc4F)C(=O)[C@@H]3CC[C@H]12: 0.0163 (inactive)
CC(C)=CCCC(C)=CCON=C1C[C@@H](O)[C@@H](O)[C@@H]2[C@@H]3C(=O)N(Cc4ccccc4)C(=O)[C@@H]3CC[C@H]12: -0.0515 (inactive)
CCCCC#C[C@@H]1C=C[C@H](Oc2cc(OC)c(OC)c(OC)c2)[C@@H](COC(=O)OCC)O1: 0.392 (inactive)
CCC1=NOC(CCC2CC(OC(=O)NCc3cccc4c3OCO4)CC3(CCCC(COC(=O)NCCc4ccccc4OC)O3)O2)C1 (centres undefined): 1.87 (inactive)
COC(=O)[C@@H]1CC[C@H](C)[C@@H](c2ccc(C)cc2)N1C(=O)c1ccc(C=NO[C@@H](C)c2cn([C@H](CO)Cc3ccccc3)nn2)cc1: -0.0658 (inactive)
C#CCCCON=C1C[C@@H](O)[C@@H](O)[C@@H]2[C@@H]3C(=O)N(CCC(=O)OCC)C(=O)[C@@H]3CC[C@H]12: 0.768 (inactive)
CO[C@@H]1COC(=O)[C@H](CCSC)NC(=O)CC=C[C@@H](C)COC(=O)[C@H](C)NC(=O)CC=C[C@H]1C: -0.665 (inactive)
CCOC(=O)NN=C1C[C@@H](O)[C@@H](O)[C@@H]2[C@@H]3C(=O)N([C@@H](C)c4ccccc4)C(=O)[C@@H]3CC[C@H]12: 0.0004 (inactive)
CO[C@H]1COC(=O)CC=C[C@@H](C)[C@H](OC)COC(=O)[C@@H]2CCCN2C(=O)CC=C[C@@H]1C: 0.832 (inactive)
CCOC(=O)[C@H](CC(C)C)NC(=O)CCC1CC(OC(=O)NCCc2ccc(F)cc2)CC2(CCCC(COC(=O)NCCc3ccc(Cl)cc3)O2)O1 (some centres undefined): 1.08 (inactive)
CC(=O)OC[C@H]1O[C@H](CC=NO[C@H](C)c2cn([C@H](CO)Cc3ccccc3)nn2)C=C[C@@H]1OC(C)=O: 0.364 (inactive)
CCOC(=O)NN=C1C[C@@H](O)[C@@H](O)[C@@H]2[C@@H]3C(=O)N(c4cccc(Oc5ccccc5)c4)C(=O)[C@@H]3CC[C@@H]12: 0.187 (inactive)
CC(=O)OC[C@H]1O[C@H](C#Cc2ccccc2)C=C[C@@H]1OC(C)=O: -0.794 (inactive)

Data origin: PubChem BioAssay
